Each record here notes measured melting point.

Worked cases, melting point given:
COMPOUND | MEAS VALUE
O=C(Cn1c(=O)n(-c2ccc3c(c2)OCO3)c2ncccc21)N1CCOCC1 | 212 to 213 °C
O=C(c1ccc(O)c(Cl)c1Cl)c1ccnn1Cc1ccccc1 | 131 to 133 °C
COC(=O)[C@@H]1C[C@H](C(=O)OC(C)(C)C)N(C(=O)CNC(=O)OC(C)(C)C)[C@@H]1c1ccccc1 (racemic) | 137 °C
CCOCOC(=O)Cc1c(C)n(C(=O)c2ccc(Cl)cc2)c2ccc(OC)cc12 | 60 to 61 °C
CN(C)CCOc1cnc(Nc2cc(-c3cccc(-n4ncc5cc(C(C)(C)C)cc(F)c5c4=O)c3CO)nn(C)c2=O)cn1 | 185 to 190 °C
NC(=O)OC[C@H]1NC(=O)[C@H]1NC(=O)OCc1ccccc1 | 192 to 193 °C

Query: Need melting point, item CN(C)CCCCCNc1nc2cc(Cl)c(Cl)cc2nc1-c1ccccn1
Response: 100 to 102 °C

Query: Reported melting point, compound CCc1nnc(-c2ccc([N+](=O)[O-])cc2)n1-c1ccc(OC)cc1 : ____
Response: 174 °C

Query: Would you mind telling me what melting point value was observed for O=C(O)CC1(c2ccccc2)Oc2ccc(Cl)cc2O1 (centres undefined) ?
Response: 117 to 119 °C

###

ENDPOINT LABEL: melting point (°C)

COMPOUND | ENDPOINT LABEL | MEAS VALUE
Cc1cc(N2C=CNC2N)ccn1 (stereo not given) | melting point | 167

1. CCCCCCCCCCCCSCCOc1ccc(CCC(=O)OC)cc1
2. O=C1O[C@H](C(O)O)CCN1Cc1ccccc1
3. O=C(Cc1ccc2c(c1)OCO2)N[C@H]1CC[C@H](CCN2CCC(c3cccc4c3CCO4)CC2)CC1
Query: Rank items: key melting point, increasing. # list labels per requested ordering
Response: 1, 2, 3

###

ENDPOINT LABEL: melting point

COMPOUND | melting point
CCN(CC)c1ccc(-c2cc(-c3ccc(C(=O)O)cc3)ccc2CCCNC(C)(C)C)cc1C(C)(C)C | 273 °C
Cn1cc(NC=O)cc1C(=O)O | 208 to 210 °C
COc1ccc(S(=O)(=O)N2CCc3cccc(-c4ccccc4)c32)cc1 | 166 to 168 °C

Query: Given Cc1ccnc(NCCCCC(=O)O)c1 , state its recorded melting point.
Response: 138 to 140 °C

Query: I would be grateful if you could share the reported melting point for CC(O)c1cc(C#C[Si](C)(C)C)c(O)c(Cl)n1 (stereo not given) .
Response: 97 to 98 °C

###

ENDPOINT LABEL: melting point

Below, each entry is followed by its recorded melting point result.
MOLECULE | melting point
COc1ccc(-c2nc(SC(C)C)[nH]c2-c2ccncc2)cc1 | 206 to 210 °C
CC(C)NC(=O)C1CC(=O)N(Cc2ccccc2)C1 (stereo unspecified) | 122 to 124 °C
CCC(=O)c1nc(C)c(C)nc1C | 65 to 67 °C
O=c1oc2ccc(F)cc2c(CBr)c1Br | 125 to 127 °C
CCOC(=O)c1cc(-n2c(-c3ccccc3)cc3c2CCc2ccccc2-3)ccc1O | 134 to 135 °C
CN(C)C(c1ccccc1)C1CCCCC1(O)Cc1cccc(F)c1 (stereo unspecified) | 146 to 147 °C
O=C(c1ccccc1)c1cccc(Cl)c1[N+](=O)[O-] | 126 °C
COc1c(Cl)cc(F)cc1C=O | 59 to 62 °C
Oc1nc2cc(Cl)c3nc(C(F)(F)F)[nH]c3c2nc1O | > 300 °C
O=C(NCCN1CCC(Nc2nc3ccccc3n2Cc2ccc(F)cc2)CC1)c1ccc(F)cc1 | 194 °C

API: the following record is the query input.
Query: State the recorded melting point for this entry: CCOc1cccc(-c2nc3ccc(C(=O)O)cc3c(=O)[nH]2)c1OCC
Response: > 320 °C

###

ENDPOINT LABEL: melting point

Some solved cases for reference:
COMPOUND | melting point
COC(=O)c1ccc(OCCCCC2Cc3c(c(OC)c(OC)c(OC)c3OC)C2)cc1 | 68 to 71 °C
COc1ccc(C(=O)N[C@H]2CCN(C)C[C@H]2c2ccccc2)cc1OC (relative stereo) | 153 to 155 °C
CCS(=O)(=O)C1C(OC)(OC)CC2C3CCC4=CC(=O)C=CC4(C)C3(F)C(O)CC21C (stereo not given) | 268 to 270 °C
CCN(CC)CCNc1ccc(CNc2ccccc2)c2sc3ccccc3c(=O)c12 | 133 to 135 °C
CCCCCCCCCCCCCCCCCC(=O)Oc1cc(C(C)(C)C)c(O)c(C(C)(C)C)c1 | 35 to 39 °C

Query: I am curious: what melting point value has been reported for CCOC(=O)Nc1ccc(OC)c(OC)c1C1OCCO1 ?
Response: 95 to 96 °C

Query: Can you look up the measured melting point of S=C1Nc2cccnc2Nc2cscc21 for me?
Response: 255 to 260 °C

Query: What value of melting point has been reported for the following compound? C[Si](C)(C)CCOCn1cc(C#N)c(=O)c2cc([N+](=O)[O-])c(Cl)cc21
Response: 200 to 202 °C

Query: # melting point lookup, item O=C(Cc1ccccc1Br)NC1CCC1
Response: 159 to 161 °C

Query: # lookup: melting point of C1CCCCCC(=NOC(=NC2CCCCC2)NC2CCCCC2)CCCCC1
Response: 108 to 111 °C

###

Recorded melting point values for a group of molecules are listed next.

MOLECULE | melting point
N#Cc1cc(C(=O)CC(O)(c2cc(Cl)cc(Cl)c2)C(F)(F)F)ccc1F (stereo not given) | 146 to 147 °C
CN1CCCC1CCOc1ccc(-c2nnc(CSCCOc3ccccc3)o2)cc1 (stereo not given) | 46 to 50 °C
COc1ccc(C=CCN2CCC3(CC2)CN(C(=O)c2ccnc(Cl)c2)c2ccc(Cl)cc23)cc1 | 83 to 85 °C
CCOC(=O)c1cn(-c2cnsn2)c2cc(F)c(F)cc2c1=O | 189 to 192 °C

Query: # lookup: melting point of CCOCc1nc2c(N)nc3cc(-c4ccccc4)cnc3c2n1CCCON=C(C)C
Response: 134 to 136 °C

###

# melting point listing for each entry below

Query: Entry CC(O)=C(C#N)C(=O)Nc1cccc(F)c1 : reported melting point = ?
Response: 136 to 138 °C

Query: I have this molecule here, Nc1cccc(S(=O)(=O)NC2(CO)CCCC2)c1 , and I need its recorded melting point.
Response: 130 to 132 °C

Query: Reported melting point, molecule CN(CCOc1ccc(CCCC2OC(=O)NC2=O)cc1)c1ccccn1 (stereo unspecified) : ____
Response: 126 to 127 °C

Query: May I ask what melting point has been recorded for COc1ccc(-c2cc(=Nc3c(C)cc(C)cc3C)n(C)c(N3CCN(C(=O)c4ccc(F)cc4)CC3)n2)cc1OC ?
Response: 117 to 121 °C

Query: Quick one: melting point for Cc1ccc(OC2=NS(=O)(=O)N=C(Oc3ccc(C)cc3)N2C)cc1 ?
Response: 282 to 286 °C

Query: // melting point lookup, key: COc1cc(N)c(Cl)cc1C(=O)NC1CCN(CCCC(=O)N2C(C)CCCC2C)CC1OC (stereo unspecified)
Response: 202 °C

###

Listing of entries alongside the reported melting point.

Query: Can you share its melting point? I mean this compound: CS(=O)(=O)Nc1ccc(OCC2CCN(c3ccncc3)CC2)cc1
Response: 214 to 215 °C

Query: Quick one: melting point for O=c1c2ccc(OCCN3CCCCC3)cc2oc2cc(OCCN3CCCCC3)ccc12 ?
Response: 134 °C

Query: What value of melting point has been reported for the following compound? CC1(C)OCCn2c1nc(C(=O)NCc1ccc(F)cc1P(=O)(O)OCc1ccccc1)c(OCc1ccccc1)c2=O
Response: 142 °C

Query: # get_value(readout='melting point', item= COC(=O)c1ccc(CN2C(=O)C3(COc4cc5c(cc43)OCCO5)c3ccccc32)cc1 (stereo not given) )
Response: 167 to 169 °C

Query: Entry COC(=O)CN1CCCC(Nc2ncc3ncnc(Nc4cccc(Br)c4)c3n2)C1 (stereo not given) : reported melting point = ?
Response: 113 °C

Query: melting point; subject: O=C(c1ccc(F)cc1)C1CCN(CCO)CC1
Response: 45 to 47 °C

Query: Fill in the blank: the reported melting point of CC1(C)Oc2cccc(O)c2O1 is ____.
Response: 88 to 90 °C

Query: What does the record list as melting point for CCOC(=O)C=Cc1ccc2cc(C=CC(=O)OCC)ccc2c1 ?
Response: 150 to 151 °C

###

# key: entry, value: melting point

Please review the following examples before continuing.
COMPOUND | melting point
CCOC(=O)CNC(=O)N1CCc2cc(S(=O)(=O)N3CCN(c4cccc(Cl)c4)CC3)ccc21 | 150 °C
CC[C@H](C)[C@H](N)C(=O)NC(C)COc1ccc(C#N)cc1 (stereo partly specified) | 64 to 67 °C
O=C(O)C1=COCC(C(=O)O)=C1 | 87 to 90 °C
N#CC(=O)c1ccc(Cl)c(Cl)c1 | 70 to 71 °C
CNC(=O)C(Cc1ccc(OC)cc1)NC(=O)C(CC(C)C)C(CC(=O)OC(C)(C)C)SC(C)=O (stereo unspecified) | 147 to 151 °C
CC(C#N)(c1ccc(Cl)c(C(F)(F)F)c1)c1ccc(N)cc1Cl (stereo unspecified) | 180 °C
Oc1cccc(CN2CCOCC2)c1 | 113 to 115 °C
Cc1cc2c(c(C)c1NC=O)CC(C)(CI)O2 (stereo unspecified) | 135 to 138 °C

Query: Returns the measured melting point for the input compound. Input: CC(C)(C)CC(C)(C)c1cc(-c2ccccc2)c(O)c(-n2nc3ccc(-c4ccccc4)cc3n2)c1
Response: 123 to 125 °C

Query: Name the reported melting point value associated with the compound CCCN(CCC)S(=O)(=O)c1cccc(C(=O)Nc2cccc([N+](=O)[O-])c2)c1
Response: 126 to 128 °C

Query: Look up melting point: CC(=O)CSc1ccc(Cl)cc1C(=O)O
Response: 139 to 140 °C

Query: For the compound Cc1cc(-c2cc(C(F)F)n3ncc(C(=O)Nc4cccc(S(=O)(=O)N5CCOCC5)c4)c3n2)ccc1C(F)(F)F , what melting point is on record?
Response: 261 °C

Query: Report melting point for O=C(c1ccco1)C1C(=O)N(c2nccs2)c2ccccc21 (stereo unspecified) please.
Response: 156 to 157 °C
